molecular target: Ubiquitin carboxyl-terminal hydrolase isozyme L5 (Homo sapiens); test: inhibitors of human UCH37 deubiquitinase, primary screen, biochemical, Ub-AMC cleavage, fluorescence (AID 588478); details: purified proteasome/UCH37, Ub-AMC cleavage fluorescence; active compounds read high; concentration not given here;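 note: 0% = compound-free wells with enzyme and 100% = wells lacking proteasome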
In all, about 330,000 compounds went through this assay and about 1,100 (0.33%) were called active. The sample as a whole holds a higher share of actives than the screen did.
inhibition reference
measureName: inhibition (%)

INSERT INTO assay_data (smilesrecord, measurename, reading) VALUES
  ('CC(=NNc1ccccc1C(=O)O)c1cccs1', 'inhibition', 10.1),
  ('CN(Cc1ccccc1)C(=O)c1cccc(C(=O)N(C)Cc2ccccc2)c1', 'inhibition', 0.499),
  ('O=C(NN=C(c1ccccc1)c1cccnc1)c1ccc(O)cc1', 'inhibition', 4.07),
  ('Cc1cccc(C(=O)ON=C(c2ccccc2)c2ccncc2)c1', 'inhibition', 3.58),
  ('CC(=NNC(=O)Cc1c(Cl)cccc1Cl)c1cccnc1', 'inhibition', 4.49),
  ('COC(=O)c1nn(-c2ccccc2)c(Sc2ccc(Cl)cc2)c1C=NO', 'inhibition', -1.82),
  ('CCN(CC)C(=O)c1nc[nH]c1C(=O)N(C)Cc1ccccc1', 'inhibition', 26.1),
  ('CCCOc1ccc(-c2c(C(=O)NN=Cc3ccccc3)nnn2-c2nonc2N)cc1', 'inhibition', 5.85),
  ('Cn1cccc1/C=C1\SC(=S)N(NC(=O)c2ccc(Cl)cc2)C1=O', 'inhibition', 1.88),
  ('O=C(O)c1ccc2c(c1)C(=O)N(NC(=O)c1ccc(O)cc1)C2=O', 'inhibition', 7.31),
  ('O=C(O)c1cc(NN=Cc2ccncc2)ccc1Cl', 'inhibition', 14.4);

###

target: Ubiquitin carboxyl-terminal hydrolase isozyme L5 (Homo sapiens); test: inhibitors of human UCH37 deubiquitinase, primary screen, biochemical, Ub-AMC cleavage, fluorescence (AID 588478); settings: purified proteasome/UCH37, Ub-AMC cleavage fluorescence; concentration not given here;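 note: 0% = compound-free wells with enzyme and 100% = wells lacking proteasome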
In all, about 330,000 compounds went through this assay and about 1,100 (0.33%) were called active.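 The calls were made as follows: active = mean inhibition over replicate wells above about 20% (limit read from the data); inactive = the rest.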 The entries come from a sample that favours actives as a whole.
Outcome codes: active, inactive

INSERT INTO assay_data (molecule, class) VALUES
  ('Cn1c(=O)n(C)c2cc(C=Nn3cnnc3)ccc21', 'inactive'),
  ('CC(=NNc1ccccc1)c1c(O)cc(C)oc1=O', 'inactive'),
  ('CC(C)(C)c1ccc(C=NNC(=S)Nc2cccnc2)cc1', 'inactive'),
  ('C=C1CC(C(=O)NN=Cc2ccccc2)C1', 'inactive'),
  ('CC(OC(=O)c1c(F)cccc1F)C(=O)NCCC1=CCCCC1 (stereo unspecified)', 'active'),
  ('COc1ccc(C(=O)NCC(=O)NN=Cc2cn[nH]c2-c2ccccc2)cc1', 'inactive'),
  ('CC(CC(=O)Nc1cc(C)ccn1)=NNC(=O)c1cccc(C)c1O', 'inactive'),
  ('CC(C)NC(=O)CC(=O)NN=Cc1ccccc1F', 'inactive'),
  ('O=C(O)C(c1ccccc1)N1C(=O)/C(=C\c2ccc(-c3cccc(Cl)c3)o2)SC1=S (stereo unspecified)', 'active'),
  ('CC(=O)CC(CC(=O)NC1CCCCC1)c1ccccc1 (stereo unspecified)', 'inactive'),
  ('O=C1c2ccccc2-c2ncnc3c(N4CCOCC4)cc(N4CCOCC4)c1c23', 'inactive'),
  ('Cc1ccc(NC(=O)Nc2cccnc2)cc1', 'inactive'),
  ('COc1ccc(CC(=O)Nc2cccc(C(C)=NNC(=O)c3cccc([N+](=O)[O-])c3)c2)cc1', 'inactive'),
  ('CC(C)CC[n+]1ccn(C2=C([O-])c3ccccc3C(=O)/C2=N\S(=O)(=O)c2ccccc2)c1', 'active'),
  ('Oc1ccc(C=NNC(=S)Nc2cccnc2)c(O)c1O', 'active'),
  ('S=c1[nH]nc(-c2cccc(Cl)c2)n1N=Cc1ccc(-c2ccccc2Br)o1', 'inactive'),
  ('COC(=O)NN=C(C)c1cccs1', 'inactive'),
  ('COC(=O)c1ccc(C=NOCC(=O)NC2CCCCCCC2)cc1', 'inactive'),
  ('O=C(CNC(=O)c1cccc(Cl)c1)NN=Cc1cccnc1', 'inactive'),
  ('Cc1cc(C)n(C(=O)C(C#N)=NNc2cc(Cl)cc(Cl)c2)n1', 'inactive'),
  ('CNC(=O)C(C#N)=c1sc(=CC(=O)OC)c(=O)n1-c1ccccc1', 'inactive'),
  ('CC1(C)CC(=O)CC(=NNC(=O)c2ccc(-c3ccccc3)cc2)C1', 'inactive'),
  ('Cc1ccc(C=NNC(=O)CNC(=O)COc2ccccc2)o1', 'inactive'),
  ('O=C1C(Cl)=C(Oc2ccccc2)C(=O)c2ccccc21', 'active'),
  ('COc1nc(Oc2ccc(=O)n(C)n2)nc(N(C)C)n1', 'active'),
  ('COc1ccc(Br)cc1C=Nn1c(COc2ccccc2)n[nH]c1=S', 'inactive'),
  ('O=C(NN=Cc1cccnc1)c1cccc(N2CCCC2=O)c1', 'inactive'),
  ('N#CC(=C(O)CCl)c1nnc2n1CCCCC2', 'active'),
  ('COc1ccccc1/C=C/C=NN1CCN(Cc2ccc(Cl)cc2)CC1', 'inactive'),
  ('CC(CC(=O)Nc1ccc(Cl)cc1Cl)=NNC(=O)c1ccncc1', 'inactive'),
  ('CC(=O)n1cc(C=NNC(=O)c2ccc(Cl)cc2)c2ccccc21', 'inactive'),
  ('O=C(N[C@@H](Cc1ccccc1)C(=O)OCc1ccccc1)c1nc[nH]c1C(=O)NC1CCNCC1', 'inactive'),
  ('CC(=NNC(=S)NC(C)C)c1ccc(Cl)s1', 'inactive'),
  ('O=C1c2ccccc2NC(c2ccc(-c3cccc(Cl)c3)o2)N1O (stereo unspecified)', 'inactive'),
  ('N#CCC(=O)NN=Cc1cn(Cc2cccc3ccccc23)c2ccccc12', 'inactive'),
  ('CC(C)(C)OC(=O)NCCC(=O)NN=Cc1ccc2nccnc2c1', 'inactive');

###

inhibition reference
molecular target: Ubiquitin carboxyl-terminal hydrolase isozyme L5 (Homo sapiens) (UniProt Q9Y5K5); assay: inhibitors of human UCH37 deubiquitinase, primary screen, biochemical, Ub-AMC cleavage, fluorescence (AID 588478); conditions: purified proteasome/UCH37, Ub-AMC cleavage fluorescence; active compounds read high; concentration not given here;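 note: 0% = compound-free wells with enzyme and 100% = wells lacking proteasome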
Sequence (Q9Y5K5 whole entry, looked up): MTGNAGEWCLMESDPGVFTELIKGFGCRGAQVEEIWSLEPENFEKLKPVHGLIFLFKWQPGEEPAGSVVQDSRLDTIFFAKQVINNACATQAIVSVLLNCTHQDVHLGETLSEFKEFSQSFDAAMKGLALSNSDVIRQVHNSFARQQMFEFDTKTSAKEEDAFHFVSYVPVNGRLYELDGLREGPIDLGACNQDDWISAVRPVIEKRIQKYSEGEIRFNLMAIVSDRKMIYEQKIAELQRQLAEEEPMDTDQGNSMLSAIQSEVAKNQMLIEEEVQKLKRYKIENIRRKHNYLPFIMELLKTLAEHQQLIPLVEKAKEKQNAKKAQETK
The whole screen tested about 330,000 compounds, of which about 1,100 (0.33%) were called active. Many of the other results were omitted from the sample, so actives are more common in it than they were.
measureName: inhibition (%)

INSERT INTO results (compound, measurename, reading) VALUES
  ('C(=NNc1nc(-c2ccccc2)cs1)c1cccs1', 'inhibition', -0.256),
  ('Cc1ccc(NC(=O)N2CCC(c3nc4c(nnn4Cc4c(F)cccc4Cl)c(=O)[nH]3)CC2)cc1', 'inhibition', 1.34),
  ('COc1ccc(CCNC(=O)CSc2nc(C)nc3c2oc2ccccc23)cc1OC', 'inhibition', 1.13),
  ('O=C(NC(Cc1c[nH]c2ccccc12)C(=O)NN=Cc1ccc(Br)cc1)c1cccs1 (centres undefined)', 'inhibition', 0.851),
  ('COC(=O)Cc1cc(=O)[nH]c(N=C(N)Nc2ccc(C)cc2C)n1', 'inhibition', -0.633),
  ('Cc1nnc(SCC(=O)N(C(C)C)C(C)C)nc1C', 'inhibition', 32.8),
  ('Cc1cccc(-c2cc(C(=O)NN=Cc3cccnc3)c3ccccc3n2)c1', 'inhibition', 1.54),
  ('CCOC(=O)c1c(N=CC2=C(O)CC(C)(C)CC2=O)sc(C)c1C', 'inhibition', -1.87),
  ('Cc1cc(C)c[n+](-c2[nH]c(=O)sc2C=NNC([S-])=Nc2ccccc2)c1', 'inhibition', 23),
  ('O=C(NC1CCCCC1)c1ccc(-c2ccc(Cl)cc2)o1', 'inhibition', 1.6),
  ('COc1ccc(C=NNC(=O)CSCC(=O)Nc2ccccc2)cc1', 'inhibition', 2.55),
  ('CC(C)N(C(=O)CSc1nc(COc2ccccc2)nc2ccccc12)C(C)C', 'inhibition', 2.03),
  ('O=C(NN=Cc1ccc(O)cc1)c1csc2ccccc12', 'inhibition', 3.7),
  ('Cc1[nH]c2ccccc2c1C=NNC(=O)CCC(=O)NCc1ccccc1', 'inhibition', 2.82);

###

molecular target: Ubiquitin carboxyl-terminal hydrolase isozyme L5 (Homo sapiens); test: inhibitors of human UCH37 deubiquitinase, primary screen, biochemical, Ub-AMC cleavage, fluorescence (AID 588478); conditions: purified proteasome/UCH37, Ub-AMC cleavage fluorescence; active compounds read high; concentration not given here;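 note: 0% = compound-free wells with enzyme and 100% = wells lacking proteasome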
Out of some 330,000 compounds screened, about 1,100 (0.33%) were called active. Only a selection was taken, and actives are over-represented in it overall.
measureName: inhibition (%)

INSERT INTO assay_data (compound, measurename, reading) VALUES
  ('CCC(C)C(C)=NNC(=O)c1ccc(COc2ccc(Cl)c(C)c2)cc1 (centres undefined)', 'inhibition', 1.66),
  ('O=C(CN1CCN(C(=O)c2ccco2)CC1)Nc1ccc2c(c1)OCO2', 'inhibition', 1.43),
  ('O=C(c1ccc2c(c1)OCO2)N1CCN(C(=O)c2ccco2)CC1', 'inhibition', 0.962),
  ('CCOC(=O)c1ccccc1OC(=O)Oc1ccccc1C(=O)OCC', 'inhibition', 2.7);

The measured values listed here are drawn from PubChem BioAssay AID588478.
